# key: entry, value: MIC
# Test summary: Antifungal activity against Malassezia pachydermatis after 48 to 72 hrs by twofold serial dilution method
# Type: functional
Result type: MIC (mg/L)

{"columns": ["Molecule", "Result type", "Unit descriptor", "Experimental value"],
 "data": [
  ["Cc1ccc2c(c1)C1(C(=O)N2C)C2=C(CN1C)C(=O)c1ccccc1C2=O (stereo not drawn)", "MIC", "mg/L", 500],
  ["Cc1ccc2c(c1)C1(C(=O)N2)C2=C(CN1C)C(=O)c1ccccc1C2=O (stereo not drawn)", "MIC", "mg/L", 125],
  ["C#CCN1C(=O)C2(C3=C(CN2C)C(=O)c2ccccc2C3=O)c2ccccc21 (stereo not drawn)", "MIC", "mg/L", 250],
  ["OC(Cn1cncn1)(Cn1cncn1)c1ccc(F)cc1F [FLUCONAZOLE]", "MIC", "mg/L", 12.5],
  ["CCCCCCN1C(=O)C2(C3=C(CN2C)C(=O)c2ccccc2C3=O)c2ccccc21 (stereo not drawn)", "MIC", "mg/L", 250],
  ["CN1CC2=C(C(=O)c3ccccc3C2=O)C12C(=O)Nc1ccc(Br)cc12 (stereo not drawn)", "MIC", "mg/L", 500],
  ["CN1CC2=C(C(=O)c3ccccc3C2=O)C12C(=O)Nc1ccc(I)cc12 (stereo not drawn)", "MIC", "mg/L", 125],
  ["CN1C(=O)C2(C3=C(CN2C)C(=O)c2ccccc2C3=O)c2ccccc21 (stereo not drawn)", "MIC", "mg/L", 125],
  ["CC(=O)N1C(=O)C2(C3=C(CN2C)C(=O)c2ccccc2C3=O)c2ccccc21 (stereo not drawn)", "MIC", "mg/L", 15.6],
  ["CCCCN1C(=O)C2(C3=C(CN2C)C(=O)c2ccccc2C3=O)c2ccccc21 (stereo not drawn)", "MIC", "mg/L", 250],
  ["CCN1C(=O)C2(C3=C(CN2C)C(=O)c2ccccc2C3=O)c2ccccc21 (stereo not drawn)", "MIC", "mg/L", 250],
  ["CC(=O)N1CCN(c2ccc(OCC3COC(Cn4ccnc4)(c4ccc(Cl)cc4Cl)O3)cc2)CC1 (stereo not drawn) [KETOCONAZOLE]", "MIC", "mg/L", 15],
  ["CN1CC2=C(C(=O)c3ccccc3C2=O)C12C(=O)Nc1ccccc12 (stereo not drawn)", "MIC", "mg/L", 250]
]}

---

# Test summary: Antifungal activity against Malassezia pachydermatis at 1000 ug/disc after 48 hrs by disc diffusion assay
# Assay type: functional
# key: entry, value: inhibition zone (IZ)
Result type: inhibition zone (IZ)

{"columns": ["Compound", "Result type", "Experimental value"],
 "data": [
  ["CCCCN1C(=O)C2(C3=C(CN2C)C(=O)c2ccccc2C3=O)c2ccccc21 (stereo not given)", "inhibition zone (IZ)", "11 mm"],
  ["O=C1C2=C(C(=O)c3ccccc31)C1(C(=O)Nc3ccc(Cl)cc31)N1CCCC21 (stereo not given)", "inhibition zone (IZ)", "9 mm"],
  ["Cc1ccc2c(c1)C1(C(=O)N2)C2=C(C(=O)c3ccccc3C2=O)C2CCCN21 (stereo not given)", "inhibition zone (IZ)", "9 mm"],
  ["CC(=O)N1CCN(c2ccc(OCC3COC(Cn4ccnc4)(c4ccc(Cl)cc4Cl)O3)cc2)CC1 (stereo not given)", "inhibition zone (IZ)", "28 mm"]
]}

---

# System: Klebsiella pneumoniae
# Test summary: Antibacterial activity against Klebsiella pneumoniae MTCC 109 at 1000 ug/disc after 24 hrs by disc diffusion assay
# Assay type: functional
# Assay setup: MTCC 109, 24 h, read-out: IZ
# key: entry, value: zone of inhibition at 1000 µg/disc

{"columns": ["Compound", "Tgt", "zone of inhibition at 1000 µg/disc"],
 "data": [
  ["C#CCN1C(=O)C2(C3=C(CN2C)C(=O)c2ccccc2C3=O)c2ccccc21 (stereo not given)", "Klebsiella pneumoniae", "11 mm"],
  ["Cc1ccc2c(c1)C1(C(=O)N2)C2=C(C(=O)c3ccccc3C2=O)C2CCCN21 (stereo not given)", "Klebsiella pneumoniae", "10 mm"],
  ["CCN1C(=O)C2(C3=C(CN2C)C(=O)c2ccccc2C3=O)c2ccccc21 (stereo not given)", "Klebsiella pneumoniae", "12 mm"],
  ["CN1C(=O)C2(C3=C(C(=O)c4ccccc4C3=O)C3CCCN32)c2ccccc21 (stereo not given)", "Klebsiella pneumoniae", "9 mm"],
  ["O=C1C2=C(C(=O)c3ccccc31)C1(C(=O)N(Cc3ccccc3)c3ccccc31)N1CCCC21 (stereo not given)", "Klebsiella pneumoniae", "8 mm"],
  ["CN1CC2=C(C(=O)c3ccccc3C2=O)C12C(=O)c1ccccc1C2=O", "Klebsiella pneumoniae", "9 mm"],
  ["O=C1C2=C(C(=O)c3ccccc31)C1(C(=O)Nc3ccc(Cl)cc31)N1CCCC21 (stereo not given)", "Klebsiella pneumoniae", "11 mm"],
  ["Cc1ccc2c(c1)C1(C(=O)N2)C2=C(CN1C)C(=O)c1ccccc1C2=O (stereo not given)", "Klebsiella pneumoniae", "13 mm"],
  ["CN1CC2=C(C(=O)c3ccccc3C2=O)C12C(=O)c1cccc3cccc2c13 (stereo not given)", "Klebsiella pneumoniae", "9 mm"],
  ["CCCCN1C(=O)C2(C3=C(CN2C)C(=O)c2ccccc2C3=O)c2ccccc21 (stereo not given)", "Klebsiella pneumoniae", "13 mm"]
]}

---

# System: Klebsiella aerogenes
# Test summary: Antibacterial activity against Enterobacter aerogenes MTCC 111 after 24 hrs by twofold serial dilution method
# Assay type: functional
# Assay setup: MTCC 111, 24 h
# key: entry, value: MIC

{"columns": ["Compound", "Unit descriptor", "Comparison operator", "MIC"],
 "data": [
  ["CC(=O)N1C(=O)C2(C3=C(CN2C)C(=O)c2ccccc2C3=O)c2ccccc21 (stereo not given)", "µg/mL", "=", 15.6],
  ["CN1CC2=C(C(=O)c3ccccc3C2=O)C12C(=O)Nc1ccc(I)cc12 (stereo not given)", "µg/mL", "=", 250],
  ["O=C(O)c1cn(C2CC2)c2cc(N3CCNCC3)c(F)cc2c1=O", "µg/mL", "<", 0.78],
  ["CN1CC2=C(C(=O)c3ccccc3C2=O)C12C(=O)Nc1ccccc12 (stereo not given)", "µg/mL", "=", 250],
  ["CCN1C(=O)C2(C3=C(CN2C)C(=O)c2ccccc2C3=O)c2ccccc21 (stereo not given)", "µg/mL", "=", 250]
]}

---

# Test summary: Antifungal activity against Malassezia pachydermatis at 1000 ug/disc after 48 hrs by disc diffusion assay
# Assay type: functional

{"columns": ["Molecule", "inhibition zone (IZ)"],
 "data": [
  ["CCCCCCN1C(=O)C2(C3=C(CN2C)C(=O)c2ccccc2C3=O)c2ccccc21 (stereo not drawn)", "12 mm"],
  ["CN1C(=O)C2(C3=C(CN2C)C(=O)c2ccccc2C3=O)c2ccccc21 (stereo not drawn)", "11 mm"]
]}

---

# Tested on: Salmonella typhimurium
# Test summary: Antibacterial activity against Salmonella Typhimurium MTCC 1251 after 24 hrs by two-fold serial dilution method
# Type: functional, Salmonella enterica subsp. enterica serovar Typhimurium
# Assay setup: Salmonella enterica, MTCC 1251, 24 h
# key: entry, value: MIC
Result type: MIC

{"columns": ["Molecule", "Experimental value"],
 "data": [
  ["CN1CC2=C(C(=O)c3ccccc3C2=O)C12C(=O)Nc1ccc(I)cc12 (stereo not drawn)", "125 µg/mL"],
  ["CCCCN1C(=O)C2(C3=C(CN2C)C(=O)c2ccccc2C3=O)c2ccccc21 (stereo not drawn)", "125 µg/mL"],
  ["CN1CC2=C(C(=O)c3ccccc3C2=O)C12C(=O)Nc1ccccc12 (stereo not drawn)", "125 µg/mL"],
  ["CN1CC2=C(C(=O)c3ccccc3C2=O)C12C(=O)Nc1ccc(Br)cc12 (stereo not drawn)", "31.2 µg/mL"],
  ["Cc1ccc2c(c1)C1(C(=O)N2)C2=C(CN1C)C(=O)c1ccccc1C2=O (stereo not drawn)", "250 µg/mL"],
  ["CC(=O)N1C(=O)C2(C3=C(CN2C)C(=O)c2ccccc2C3=O)c2ccccc21 (stereo not drawn)", "15.6 µg/mL"],
  ["CN[C@@H]1[C@H](O[C@H]2[C@H](O[C@H]3[C@H](O)[C@@H](O)[C@H](N=C(N)N)[C@@H](O)[C@@H]3N=C(N)N)O[C@@H](C)[C@]2(O)C=O)O[C@@H](CO)[C@H](O)[C@H]1O [STREPTOMYCIN]", "30 µg/mL"],
  ["O=C(O)c1cn(C2CC2)c2cc(N3CCNCC3)c(F)cc2c1=O [CIPROFLOXACIN]", "> 100 µg/mL"]
]}

---

# Test system: Klebsiella pneumoniae
# Test summary: Antibacterial activity against Klebsiella pneumoniae MTCC 109 after 24 hrs by twofold serial dilution method
# Type: functional
# Assay setup: MTCC 109, 24 h
# key: entry, value: MIC

{"columns": ["Compound", "Tgt", "Comparison operator", "MIC [µg/mL]"],
 "data": [
  ["CN1CC2=C(C(=O)c3ccccc3C2=O)C12C(=O)Nc1ccc(I)cc12 (stereo not given)", "Klebsiella pneumoniae", "=", 250],
  ["CN1CC2=C(C(=O)c3ccccc3C2=O)C12C(=O)Nc1ccc(Br)cc12 (stereo not given)", "Klebsiella pneumoniae", "=", 500],
  ["C#CCN1C(=O)C2(C3=C(CN2C)C(=O)c2ccccc2C3=O)c2ccccc21 (stereo not given)", "Klebsiella pneumoniae", "=", 250],
  ["CN1C(=O)C2(C3=C(CN2C)C(=O)c2ccccc2C3=O)c2ccccc21 (stereo not given)", "Klebsiella pneumoniae", "=", 31.2],
  ["O=C(O)c1cn(C2CC2)c2cc(N3CCNCC3)c(F)cc2c1=O", "Klebsiella pneumoniae", "<", 0.78]
]}
